Test: Tissue distribution after single IP or PO dose
Assay type: in vivo, BALB/c mice
Settings: female, BALB/c, mouse, heart, ip, 10 mg/kg, Tmax; IP 10 mg/kg; mean ± SEM
measured metric: Tmax
Note: state the figure and append the unit.

Input line: Tell me the measured Tmax of CCn1c2ccccc2c2cc(-n3nncc3-c3ccccc3)ccc21 , please.
Output line: 30 min

---

Assay: Tissue distribution after single IP or PO dose
Assay type: in vivo, BALB/c mice
Details: female, BALB/c, mouse, kidneys, po, 10 mg/kg
measured metric: Vd/F (L)
Only the number, expressed in L, is required.

Input line: Tell me the measured Vd/F of CCn1c2ccccc2c2cc(-n3nncc3-c3ccccc3)ccc21 [MBQ-167] , please.
Output line: 0.188

---

Assay: Tissue distribution after single IP or PO dose
Format: in vivo, BALB/c mice
Conditions: female, BALB/c, mouse, lungs, po, 10 mg/kg
measured metric: tissue uptake (%ID/g)
Only the number, expressed in %ID/g, is required.

Input line: Tell me the measured tissue uptake of CCn1c2ccccc2c2cc(-n3nncc3-c3ccccc3)ccc21 , please.
Output line: 13

---

Assay: Tissue distribution after single IP or PO dose
Assay type: in vivo, BALB/c mice
Conditions: female, BALB/c, mouse, spleen, ip, 10 mg/kg
measured metric: k el (s⁻¹)
Only the number, expressed in s⁻¹, is required.

Input line: Tell me the measured k el of CCn1c2ccccc2c2cc(-n3nncc3-c3ccccc3)ccc21 [MBQ-167] , please.
Output line: 0.000103

---

Assay: Tissue distribution after single IP or PO dose
Assay type: in vivo, BALB/c mice
Details: female, BALB/c, mouse, kidneys, ip, 10 mg/kg
measured metric: half-life (h)
Only the number, expressed in h, is required.

Input line: Tell me the measured half-life of CCn1c2ccccc2c2cc(-n3nncc3-c3ccccc3)ccc21 , please.
Output line: 1.39

---

Experiment: Tissue distribution after single IP or PO dose
Type: in vivo, BALB/c mice
Conditions: female, BALB/c, mouse, liver, ip, 10 mg/kg
measured metric: concentration at 30 min (ng/g)
Only the number, expressed in ng/g, is required.

Input line: Tell me the measured concentration at 30 min of CCn1c2ccccc2c2cc(-n3nncc3-c3ccccc3)ccc21 , please.
Output line: 4560

---

Assay: Tissue distribution after single IP or PO dose
Format: in vivo, BALB/c mice
Settings: female, BALB/c, mouse, spleen, ip, 10 mg/kg
measured metric: concentration at 30 min (ng/g)
Only the number, expressed in ng/g, is required.

Input line: Tell me the measured concentration at 30 min of CCn1c2ccccc2c2cc(-n3nncc3-c3ccccc3)ccc21 [MBQ-167] , please.
Output line: 1620

---

Assay: Tissue distribution after single IP or PO dose
Assay type: in vivo, BALB/c mice
Settings: female, BALB/c, mouse, kidneys, po, 10 mg/kg
measured metric: MRT inf (h)
Only the number, expressed in h, is required.

Input line: Tell me the measured MRT inf of CCn1c2ccccc2c2cc(-n3nncc3-c3ccccc3)ccc21 , please.
Output line: 2.7

---

Assay: Tissue distribution after single IP or PO dose
Type: in vivo, BALB/c mice
Details: female, BALB/c, mouse, lungs, ip, 10 mg/kg
measured metric: k el (s⁻¹)
Only the number, expressed in s⁻¹, is required.

Input line: Tell me the measured k el of CCn1c2ccccc2c2cc(-n3nncc3-c3ccccc3)ccc21 , please.
Output line: 0.000108

Sourced from paper PMC6843717
